- experiment description: Cell Viability - LYMP2-016 (AID 984);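 note: cells exposed to compound for 24 hours at 37 °C; nearly all actives have a fitted effect of over 55% in size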
- cond: LYMP2-016 lymphoblastoid cell viability, qHTS; series mostly up to 92.2 µM
- Description: NIH Chemical Genomics Center [NCGC] NIH Molecular Libraries Screening Centers Network [MLSCN] National Institutes of Environmental Health Sciences [NIEHS] National Toxicology Program [NTP] We have developed a 1536-well cell-based assay for quantitative high throughput screening (qHTS) against a number of cell lines to determine in vitro cytotoxicity of small molecules. […] 8. Detection; Luminescence; Viewlux plate reader […]
Records with an inconclusive call do not appear. Activity calls are given as the source filed them. Calls come from the whole dose curve; as a rule, active = well fitted cell-killing curve with a large enough effect; inconclusive = small, poorly fitted or top-dose-only effect; inactive = flat fitted curve, though single readings scatter.
Permitted responses: active, inactive

INPUT: # fetch the recorded call for CC[n+]1c(-c2ccccc2)c2cc(N)ccc2c2ccc(N)cc21 here
OUTPUT: active

INPUT: Check CNC(=O)Oc1cccc2ccccc12 too.
OUTPUT: inactive

INPUT: Check CN(C)C(=S)SSC(=S)N(C)C too.
OUTPUT: active

INPUT: Check CCCCCCCCCCCC[N+](C)(C)CCOc1ccccc1 too.
OUTPUT: active

INPUT: Check COP(=O)(OC)OC=C(Cl)Cl too.
OUTPUT: inactive

INPUT: Check Oc1c(Br)cc(Br)cc1Br too.
OUTPUT: inactive

---

Please provide measured efficacy for the entries that follow.
- cond: Ebola virus entry assay, green fluorescence channel
Potency and affinity values are given separately.
Report only the number, with the unit % understood.

INPUT: If you can, please state the reported efficacy value of CN(C)CCC(c1ccccc1)c1ccccn1 (stereo unspecified) .
OUTPUT: 12.6

INPUT: Check CCN(CCCc1ccccc1)CCCc1ccccc1 too.
OUTPUT: 48.4

INPUT: Check CCCS(=O)c1ccc2nc(NC(=O)OC)[nH]c2c1 (stereo unspecified) too.
OUTPUT: 23.9

INPUT: Check CC(Cc1ccc2c(c1)OCO2)NO (stereo unspecified) too.
OUTPUT: -23.6

INPUT: Check CCOC(=O)OCC/C(SC(=O)OCC)=C(\C)N(C=O)Cc1cnc(C)nc1N too.
OUTPUT: 26.7

INPUT: Check O=c1oc2c(O)c(O)cc3c(=O)oc4c(O)c(O)cc1c4c23 too.
OUTPUT: 33.8

---

- cond: Ebola virus entry assay, blue channel fluorescence
The source made the active and inactive calls. The rule behind the calls is not given here.
Permitted responses: y for active, n for inactive

INPUT: # fetch the recorded call for COc1cccc2c1C(=O)c1c(O)c3c(c(O)c1C2=O)C[C@@](O)(C(=O)CO)C[C@@H]3O[C@H]1C[C@H](N)[C@H](O[C@@H]2CCCCO2)[C@H](C)O1 here
OUTPUT: n

INPUT: Check OC(CCN1CCCCC1)(c1ccccc1)C1CC2C=CC1C2 (centres undefined) too.
OUTPUT: y

INPUT: Check CCCCCCCCCCCCCCCCCCNC(=O)OC1CCN(C(=O)OC[C@H](COC(=O)N(Cc2cccc[n+]2CC)C(=O)c2ccccc2OC)OC)CC1 too.
OUTPUT: y

INPUT: Check NCc1cccnc1 too.
OUTPUT: n

INPUT: Check CC[C@H]1C[C@H]2[C@@H]3CCC4=CC(=O)CC[C@@H]4[C@H]3CC[C@]2(C)[C@H]1O too.
OUTPUT: n

INPUT: Check NC(N)=NN=C(/C=C/c1ccc([N+](=O)[O-])o1)/C=C/c1ccc([N+](=O)[O-])o1 too.
OUTPUT: y

INPUT: Check CCCOC(C(=O)OC1CCN(C)CC1)(c1ccccc1)c1ccccc1 too.
OUTPUT: y

INPUT: Check Brc1c(NC2=NCCN2)ccc2nccnc12 too.
OUTPUT: n

INPUT: Check O=C(CCCCC(=O)Nc1c(I)cc(I)c(C(=O)O)c1I)Nc1c(I)cc(I)c(C(=O)O)c1I too.
OUTPUT: n

---

- experiment description: qHTS for Inhibitors of the Functional Ribonucleoprotein Complex (vRNP) of Lassa (LASV) Arenavirus: LASV Primary Screen - GLuc reporter signal (AID 1347082); note: % is set by controls: 0 for no effect and ±100 for the full control effect; nearly all actives have a fitted effect of over 60% in size
- cond: LASV minigenome vRNP, Gaussia luciferase reporter; series mostly up to 57.5 µM
Records with an inconclusive call do not appear. Activity calls are given as the source filed them. Calls come from the whole dose curve; tested in HEK293 reporter line.
value type: outcome

In the examples that follow, each entry is paired with its recorded outcome.
>>> df
                                   compound  measured_result
0  CC(=O)Nc1ccn(C2COC(COC(=O)c3ccccc3)O2)c(=O)n1 (configuration not stated)         inactive
1  OC[C@H]1O[C@@H](OCCc2ccc(O)cc2)[C@H](O)[C@@H](O)[C@H]1O         inactive
2       Cc1cccc(Nc2cc(Cl)nc(SCC(=O)O)n2)c1C         inactive
3  CN1CCN(c2cc3c(cc2F)c(=O)c(C(=O)O)cn3-c2ccc(F)cc2)CC1         inactive

Shifting focus to the compound that follows.
INPUT: If you can, please state the reported outcome value of CC(C(=O)O)c1ccc2c(c1)Cc1cccnc1O2 (configuration not stated) .
OUTPUT: inactive

---

- experiment description: S16 Schwann cell PMP22 intronic element firefly luciferase assay (AID 624032); note: nearly all actives have a fitted effect of over 30% in size
- cond: S16 rat Schwann cells, PMP22 element FLuc, 24 h; series mostly up to 57.5 µM
Records with an inconclusive call do not appear. Active and inactive are the calls of the source. Calls follow the shape of the dose curve; as a rule, active = well fitted inhibition curve with a large enough effect; inconclusive = small, poorly fitted or top-dose-only effect; inactive = no such curve, though single readings can be large or run the other way.
Permitted responses: active, inactive

INPUT: # fetch the recorded call for c1ccc2nc(N3CCNCC3)ccc2c1 here
OUTPUT: inactive

INPUT: Check CN1CCN(c2cc3c(nn2)Oc2ccccc2N3C)CC1 too.
OUTPUT: inactive

INPUT: Check C[C@H]1C(=O)O[C@@H]2CCN3CC=C(COC(=O)[C@](C)(O)[C@]1(C)O)[C@H]23 too.
OUTPUT: inactive

INPUT: Check NC(N)=NN=C(/C=C/c1ccc([N+](=O)[O-])o1)/C=C/c1ccc([N+](=O)[O-])o1 too.
OUTPUT: active

INPUT: Check CN1CCc2cc(Cl)c(O)cc2[C@H]2c3ccccc3CC[C@@H]21 too.
OUTPUT: inactive

INPUT: Check Oc1ccc2[nH]cc(CCCCN3CC=C(c4ccccc4)CC3)c2c1 too.
OUTPUT: active

INPUT: Check CCCCCCCCCCCCOCCOCCOCCOCCOCCOCCOCCOCCOCCO too.
OUTPUT: active

INPUT: Check CN1C(=O)CN=C(c2ccccc2)c2cc([N+](=O)[O-])ccc21 too.
OUTPUT: inactive

INPUT: Check CC(C)(C)C(=O)C(Oc1ccc(Cl)cc1)n1ccnc1 (stereo not given) too.
OUTPUT: active

INPUT: Check CCN(CC)CCOC(=O)C(C)(c1ccccc1)c1ccccc1 too.
OUTPUT: inactive

INPUT: Check O=C(Oc1cccc2cccnc12)c1ccccc1 too.
OUTPUT: active

INPUT: Check CC[n+]1c(-c2ccccc2)c2cc(N)ccc2c2ccc(N)cc21 too.
OUTPUT: inactive

INPUT: Check CCOC(=O)NC(O)C(Cl)(Cl)Cl (stereo not given) too.
OUTPUT: inactive

INPUT: Check CC1CCc2cc(F)cc3c(=O)c(C(=O)O)cn1c23 (stereo not given) too.
OUTPUT: inactive

INPUT: Check CC(C)(O)C(Cl)(Cl)Cl too.
OUTPUT: inactive

INPUT: Check Cc1cccc(C)c1NC(=O)CN1CCCC1 too.
OUTPUT: active

INPUT: Check O=C(CCCN1CCC(n2c(=O)[nH]c3ccccc32)CC1)c1ccc(F)cc1 too.
OUTPUT: inactive

INPUT: Check O=C(O)c1nn(Cc2ccc(Cl)cc2Cl)c2ccccc12 too.
OUTPUT: inactive

INPUT: Check COC(=O)C1=C(C)NC(C)=C(C(=O)OC)C1c1ccccc1[N+](=O)[O-] too.
OUTPUT: active

INPUT: Check COP(=O)(OC)C(O)C(Cl)(Cl)Cl (stereo not given) too.
OUTPUT: inactive

INPUT: Check O=C(O)c1ccc(OCCCOc2ccc(C(=O)O)cc2)cc1 too.
OUTPUT: inactive

INPUT: Check CCC(=O)O[C@H]1CC[C@H]2[C@@H]3CCC4=CC(=O)CC[C@]4(C)[C@H]3CC[C@]12C too.
OUTPUT: inactive

INPUT: Check CN(C)C(=S)SC(=S)N(C)C too.
OUTPUT: active

INPUT: Check CCNc1nc(Cl)nc(NCC)n1 too.
OUTPUT: inactive

INPUT: Check CNC(=O)NC(O)C(Cl)(Cl)Cl (stereo not given) too.
OUTPUT: inactive

---

Please provide measured activity change, negative = inhibition for the entries that follow.
- experiment description: Primary qHTS to identify inhibitors of SARS-CoV-2 cell entry (AID 1645846); note: nearly all actives have a fitted effect of over 45% in size
- cond: SARS-CoV-2 pseudovirus cell entry assay, luminescence; at 57.1 µM (top of the series) unless noted
Results filed as inconclusive are left out.
Report only the number, with the unit % understood.

INPUT: If you can, please state the reported activity change, negative = inhibition value of CCOC(=O)c1cccc(N)c1 .
OUTPUT: -8.06

INPUT: Check C[C@H](N)[C@H](O)c1cccc(O)c1 too.
OUTPUT: 1.07

INPUT: Check C[C@@H]1O[C@@H](O[C@@H]2C=C3CC[C@@H]4[C@H](CC[C@]5(C)[C@@H](c6ccc(=O)oc6)CC[C@]45O)[C@@]3(C)CC2)[C@H](O)[C@H](O)[C@H]1O too.
OUTPUT: -97.4

INPUT: Check CN1CCN(C2=Nc3ccccc3Sc3ccc(Cl)cc32)CC1 too.
OUTPUT: -10.6

INPUT: Check CCCSS/C(CCO)=C(\C)N(C=O)Cc1cnc(C)nc1N too.
OUTPUT: -57.5

INPUT: Check CCCCCCCCCCCCOS(=O)(=O)O too.
OUTPUT: -9.15

INPUT: Check CN(C)CCN(Cc1cccs1)c1ccccn1 too.
OUTPUT: -3.24

Provenance of the data: PubChem BioAssay (NCATS)
